Each recorded value in this set is attributed to paper PMC6456411.

- Tested on: Saos-2 cells
- assay-protocol: Cytotoxicity of chemotherapy drugs on 2D cell culture of Saos-2
- condition-info: Homo sapiens, SAOS-2, 48 h, read-out: IC50 against Saos-2 cells
measured-metric: pIC50
Please note pIC50 is a logarithmic value: minus log10 of concentration in mol/L. Answer with that number alone.

So what does the record say about pIC50 for COc1cccc2c1C(=O)c1c(O)c3c(c(O)c1C2=O)C[C@@](O)(C(=O)CO)C[C@@H]3O[C@H]1C[C@H](N)[C@H](O)[C@H](C)O1 ? 5.85
